Cited source for all entries: patent US20240327534A1

- subject.of.test: T1, human BCMA protein (human, UniProt Q02223 1-54, limits assumed)
- T1 sequence: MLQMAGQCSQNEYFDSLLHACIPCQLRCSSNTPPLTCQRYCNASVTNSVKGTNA
- assay.info: affinity to human BCMA protein, method not stated
measurement.label: Kd (nM)
Provide only the numeric value, understood in nM.

BCMA targeting trispecific protein 02C03 (other, trispecific; not shown: the C-terminal His6 follows those missing domains and is left out) VHH: EVQLVESGGGLVQPGRSLTLSCAASTNIASISPMGWYRQAPGKQRELVAAIHGSSTLYADSVKGRFTISRDNAKNSIYLQMNSLRPEDTALYYCNKVPWGDYHPGNVYWGQGTQVTVSS ... 7.09

Using the record for BCMA targeting trispecific protein 02E03 (other, trispecific; not shown: anti-albumin domain, anti-CD3 domain and the linkers of the trispecific (TriTAC) chain; the C-terminal 6xHis tag follows these missing domains and is left out) VHH: EVQLVESGGGLVQPGRSLTLSCAASTNIFSNSPMGWYRQAPGKQRELVAAIHGPSTLYADSVKGRFTISRDNAKNSIYLQMNSLRPEDTALYYCNKVPWGDYHPRNVTWGQGTQVTVSS , report its Kd. 16.8

Using the record for BCMA targeting trispecific protein 01G10 (other, not shown: large carriers; small tags and cut ends, trispecific) VHH: EVQLVESGGGLVQPGRSLTLSCAASTNEFSISPMGWYRQAPGKQRELVAAIHGLSTLYADSVKGRFTISRDNAKNSIYLQMNSLRPEDTALYYCNKVPWGAYHPRNVYWGQGTQVTVSS , report its Kd. 41.9
